Experiment: in vivo
Conditions: female, CD-1, mouse, in vivo, iv, 15 mg/kg, β-t1/2, mouse
Experimental: Mouse pharmacokinetic studies were conducted by using female CD-1 mice for compounds 1, 11, and 12, while BALB/c mice were used for compound 13. […] Antibiotic concentrations in the plasma samples were analyzed by liquid chromatography-tandem mass spectrometry (LC-MS/MS). […] The limit of quantitation (LOQ) was 1 or 2 ng/ml. […]
property name: half-life

CCOc1ccc(Br)c2c1B(O)OC2CN (stereo not shown); 2.08 h

###

Assay: in vivo
Conditions: female, CD-1, mouse, in vivo, iv, 15 mg/kg, α-t1/2, mouse
property name: half-life (min)

CCOc1ccc(Br)c2c1B(O)OC2CN (stereo not shown); 5.4

###

System: SDHA in HepG2 cells
Assay: Mitochondrial protein synthesis assay, SDHA level
Type: cell-based
Conditions: Homo sapiens, 168 h; HepG2, 7 days; read-out: Mean EC50 ± SD SDHA
property name: EC50 (µM)

C[C@H]1c2cccc(O)c2C(=O)C2=C(O)[C@]3(O)C(=O)C(C(N)=O)=C(O)[C@@H](N(C)C)[C@@H]3[C@@H](O)[C@@H]21; 109
CCOc1ccc(Cl)c2c1B(O)O[C@@H]2CN; 20.5
CCOc1ccc(Br)c2c1B(O)O[C@@H]2CN; 21.5
CCOc1ccc(F)c2c1B(O)O[C@@H]2CN; 39.5

###

Experiment: in vivo
Settings: mouse, i.v., 30 mg/kg
property name: β-t1/2 % AUC (% AUC)

CCOc1cccc2c1B(O)O[C@@H]2CN [Compound 2]; 95
CCOc1ccc(F)c2c1B(O)O[C@@H]2CN [Compound 12]; 93
CCOc1ccc(Cl)c2c1B(O)O[C@@H]2CN [Compound 13]; 98
CCOc1ccc(Br)c2c1B(O)O[C@@H]2CN [Compound 14]; 95

###

Assay: in vitro
Assay type: in vitro ADME
Conditions: mouse plasma, 1 and 10 µg/ml, ultrafiltration; read-out: Mouse PPB (converted)
Each record here notes measured fraction unbound.
property name: fraction unbound

CCOc1ccc(Br)c2c1B(O)OC2CN (stereo not shown) [Compound 11]; 0.5
CCOc1cccc2c1B(O)O[C@@H]2CN [Compound 2]; 0.94
CCOc1ccc(Cl)c2c1B(O)O[C@@H]2CN [Compound 13]; 0.77
CCOc1ccc(F)c2c1B(O)O[C@@H]2CN [Compound 12]; 0.84

###

Each record here notes measured Tmax.
Experiment: in vivo
Settings: mouse, in vivo, po, 30 mg/kg
property name: Tmax (min)

CCOc1ccc(Br)c2c1B(O)O[C@@H]2CN; 30
CCOc1cccc2c1B(O)O[C@@H]2CN; 30
CCOc1ccc(F)c2c1B(O)O[C@@H]2CN; 60
CCOc1ccc(Br)c2c1B(O)OC2CN (centres unmarked); 60
CCOc1ccc(Cl)c2c1B(O)O[C@@H]2CN; 15

###

Experiment: in vivo
Settings: mouse, in vivo, po, 30 mg/kg
property name: AUC(0-t) (ng·h/mL)

CCOc1ccc(F)c2c1B(O)O[C@@H]2CN; 23800
CCOc1ccc(Br)c2c1B(O)O[C@@H]2CN; 57600
CCOc1ccc(Cl)c2c1B(O)O[C@@H]2CN; 47500
CCOc1cccc2c1B(O)O[C@@H]2CN; 13200
CCOc1ccc(Br)c2c1B(O)OC2CN (centres unmarked); 35900

###

Experiment: in vivo
Settings: female, CD-1, mouse, in vivo, iv, 15 mg/kg
property name: clearance (mL/min/kg)

CCOc1ccc(Br)c2c1B(O)OC2CN (stereo not shown); 5.47

###

Test: in vivo
Details: CD-1, mouse, in vivo, po, 30 mg/kg
property name: Cmax

CCOc1cccc2c1B(O)OC2CN (stereo not shown) [Compound 1]; 4330 ng/mL

###

Each record here notes measured EC50.
Tested on: SDHA in HepG2 cells
Assay: Mitochondrial protein synthesis assay, SDHA level
Format: cell-based
Details: Homo sapiens, 168 h; HepG2, 7 days; read-out: Mean EC50 ± SD SDHA
property name: EC50

CC(=O)NC[C@H]1CN(c2ccc(N3CCOCC3)c(F)c2)C(=O)O1; > 150 µM
O=C(N[C@H](CO)[C@H](O)c1ccc([N+](=O)[O-])cc1)C(Cl)Cl; > 150 µM
CC[C@H]1OC(=O)[C@H](C)[C@@H](O[C@H]2C[C@@](C)(OC)[C@@H](O)[C@H](C)O2)[C@H](C)[C@@H](O[C@@H]2O[C@H](C)C[C@H](N(C)C)[C@H]2O)[C@](C)(O)C[C@@H](C)C(=O)[C@H](C)[C@@H](O)[C@]1(C)O; > 150 µM
